tested on: Escherichia coli TOP10; test: shrunken log2 fold change of peptide-encoding DNA abundance (4.5 h post-induction vs induction); higher = less antimicrobial activity (less host growth inhibition); settings: time post-induction: 4.5 h; library: site-saturation at positions 5, 18, 19, 20
parameter-measured: shrunken log2 fold change

# residue-string, reported-measurement
records = [
    ("RRIRKRPPRLPRPRPRPGYMPRP", -0.144),
    ("RRIRSRPPRLPRPRPRPCGNPRP", 0.1),
    ("RRIRLRPPRLPRPRPRPVNIPRP", -0.163),
    ("RRIRSRPPRLPRPRPRPWHPPRP", -0.125),
    ("RRIRLRPPRLPRPRPRPFNWPRP", -0.223),
    ("RRIRPRPPRLPRPRPRPDKAPRP", 0.00631),
    ("RRIRCRPPRLPRPRPRPQEPPRP", 0.359),
    ("RRIRTRPPRLPRPRPRPGAMPRP", 0.144),
    ("RRIRCRPPRLPRPRPRPRNKPRP", -0.102),
    ("RRIRHRPPRLPRPRPRPLMMPRP", -0.124),
    ("RRIRERPPRLPRPRPRPPLPPRP", 0.151),
    ("RRIRKRPPRLPRPRPRPGHRPRP", 0.118),
    ("RRIRGRPPRLPRPRPRPQFVPRP", 0.0536),
    ("RRIRCRPPRLPRPRPRPNMPPRP", -0.627),
    ("RRIRVRPPRLPRPRPRPIDNPRP", -0.447),
    ("RRIRWRPPRLPRPRPRPHFRPRP", 0.0695),
    ("RRIRKRPPRLPRPRPRPMYGPRP", 0.00748),
    ("RRIRGRPPRLPRPRPRPNVHPRP", 0.167),
    ("RRIRYRPPRLPRPRPRPYGNPRP", -0.00695),
    ("RRIRCRPPRLPRPRPRPLWEPRP", 0.00378),
    ("RRIRWRPPRLPRPRPRPVKCPRP", -0.015),
    ("RRIRYRPPRLPRPRPRPDGVPRP", -0.0741),
    ("RRIRFRPPRLPRPRPRPDLYPRP", -0.053),
    ("RRIRKRPPRLPRPRPRPFYFPRP", 0.00515),
    ("RRIRNRPPRLPRPRPRPHRDPRP", -0.0417),
    ("RRIRMRPPRLPRPRPRPSVYPRP", -0.335),
    ("RRIRMRPPRLPRPRPRPFKWPRP", -0.0704),
    ("RRIRFRPPRLPRPRPRPQHAPRP", -0.202),
    ("RRIRRRPPRLPRPRPRPDKSPRP", 0.00757),
    ("RRIRYRPPRLPRPRPRPMSVPRP", -0.0288),
    ("RRIRIRPPRLPRPRPRPTKAPRP", -0.162),
    ("RRIRARPPRLPRPRPRPYEWPRP", -0.0646),
]

---

system: Escherichia coli TOP10; assay: shrunken log2 fold change of peptide-encoding DNA abundance (4.5 h post-induction vs induction); higher = less antimicrobial activity (less host growth inhibition); conditions: time post-induction: 4.5 h; library: site-saturation at positions 5, 18, 19, 20;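 further: peptides expressed intracellularly from a pBAD plasmid library in pooled LB shake-flask culture, induced with 0.3% L-arabinose, DNA abundance read by NGS, three biological replicates, DESeq2 with apeglm shrinkage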
Use condition met when the recorded shrunken log2 fold change is no lower than -0.06; use condition not met when it is lower.

# residue-string, class
records = [
    ("RRIRCRPPRLPRPRPRPVKVPRP", "condition not met"),
    ("RRIRWRPPRLPRPRPRPNPCPRP", "condition not met"),
    ("RRIRWRPPRLPRPRPRPDHQPRP", "condition not met"),
    ("RRIRNRPPRLPRPRPRPWQRPRP", "condition met"),
    ("RRIRVRPPRLPRPRPRPLRSPRP", "condition met"),
    ("RRIRVRPPRLPRPRPRPLAGPRP", "condition met"),
    ("RRIRFRPPRLPRPRPRPQTFPRP", "condition not met"),
    ("RRIRIRPPRLPRPRPRPCWDPRP", "condition met"),
    ("RRIRMRPPRLPRPRPRPYVEPRP", "condition not met"),
    ("RRIRVRPPRLPRPRPRPWNSPRP", "condition not met"),
    ("RRIRHRPPRLPRPRPRPVNFPRP", "condition not met"),
    ("RRIRLRPPRLPRPRPRPPMEPRP", "condition met"),
    ("RRIRVRPPRLPRPRPRPYKKPRP", "condition met"),
    ("RRIRSRPPRLPRPRPRPNFIPRP", "condition not met"),
    ("RRIRRRPPRLPRPRPRPFILPRP", "condition not met"),
]
